Multiple publications report IC50 for UniProt:P42338; what follows is a combined list.

Please review the following examples before continuing.
- compound: "Cc1cccc2cc([C@H](C)Nc3ncnc4cccnc34)nc(N3CCN(C)CC3)c12"
  measured.on: "UniProt:P42338"
  IC50: "< 10 µM"
- compound: "CCC(Nc1ncnc2[nH]cnc12)c1cc2cccc(C)c2c(=O)n1C(C)C (centres unmarked)"
  measured.on: "UniProt:P42338"
  IC50: "< 10 µM"
- compound: "C[C@H](Nc1ncnc2scnc12)c1cc2cccc(-c3cn[nH]c3)c2c(=O)n1-c1ccccc1"
  measured.on: "UniProt:P42338"
  IC50: "1 to 10 µM"
- compound: "CC(C)N1CCC(n2cnc3ccc(-c4cnc(Cl)c(NS(=O)(=O)c5ccccc5)c4)cc3c2=O)CC1"
  measured.on: "UniProt:P42338"
  IC50: "< 0.1 µM"
- compound: "CS(=O)(=O)N1CCC(Nc2cnc3ccc(-c4ccc5oc(N)nc5c4)cc3n2)CC1"
  measured.on: "UniProt:P42338"
  IC50: "< 10 µM"
- compound: "Nc1nc2cc(-c3ccc4ncc(N5CCN(CC(F)(F)F)CC5)nc4c3)ccc2o1"
  measured.on: "UniProt:P42338"
  IC50: "> 10 µM"
- compound: "CN1CCN(C(=O)Cn2ncc3c(-c4cnc(N)nc4)nc(N4CCOCC4)nc32)CC1"
  measured.on: "UniProt:P42338"
  IC50: "0.1 to 10 µM"
- compound: "C[C@H]1CN(c2cc(-c3cnc(N)nc3C(F)(F)F)nc(N3CCOCC3)n2)C(=O)O1"
  measured.on: "UniProt:P42338"
  IC50: "0.02 µM"
- compound: "Nc1nc2cc(-c3ccc4ncc(C(=O)N5CC(n6cccn6)C5)n4c3)ccc2o1"
  measured.on: "UniProt:P42338"
  IC50: "> 10 µM"
- compound: "CC(=O)Nc1nc2cc(-c3nn(Cc4cc5cccc(C)c5c(=O)n4-c4ccccc4)c4ncnc(N)c34)ccc2o1"
  measured.on: "UniProt:P42338"
  IC50: "< 0.1 µM"

q: What measured IC50 is associated with C[C@H](NC(=O)c1c(N)nn2cccnc12)c1cc2cccc(C#CCNC(=O)[C@H]3CCC(=O)O3)c2c(=O)n1-c1ccccc1 on UniProt:P42338?
a: 1 to 10 µM

q: What measured IC50 is associated with CC(=O)Nc1nc2ccc(-c3nn(Cc4cc5cccc(Cl)c5c(=O)n4C(C)C)c4ncnc(N)c34)cc2s1 on UniProt:P42338?
a: < 0.1 µM

q: What measured IC50 is associated with Nc1cc(-c2ccc3ncc(C(=O)N4CCOCC4)n3c2)cnc1Cl on UniProt:P42338?
a: > 10 µM

q: What measured IC50 is associated with CN(C)CCn1cnc2ccc(-c3ccc4oc(N)nc4c3)cc2c1=O on UniProt:P42338?
a: > 10 µM

q: What measured IC50 is associated with Cc1cc(-c2ccc3oc(N)nc3c2)cn2c(C(=O)N3CCOCC3)cnc12 on UniProt:P42338?
a: > 10 µM

q: What measured IC50 is associated with C[C@H](NC(=O)c1nccnc1N)c1cc2cccc(-c3cnn(C)c3)c2c(=O)n1-c1ccccc1 on UniProt:P42338?
a: > 10 µM

q: What measured IC50 is associated with COC[C@H]1COC(=O)N1c1cc(-c2cnc(N)nc2C(F)(F)F)nc(N2CCOCC2)n1 on UniProt:P42338?
a: 0.011 µM
